Origin of the recorded values: PubChem BioAssay (Tox21)

# tested-target: Glucocorticoid receptor (Homo sapiens)
# assay-summary: qHTS assay to identify small molecule agonists of the glucocorticoid receptor (GR) signaling pathway (AID 720691)
# condition-description: GR-bla HeLa, beta-lactamase reporter ratio, 18 h; series mostly up to 62.4 µM
Inconclusive results are not listed. The source made the active and inactive calls. Calls follow the shape of the dose curve; as a rule, active = well fitted activation curve with a large enough effect in the signal ratio in the repeat runs (not every such curve was filed as active); inconclusive = weak or mixed curves, or effect the other way; inactive = no such curve, though single readings can be large or run the other way; the % refers to the signal ratio.
metric-name: outcome

                                    compound  metric_name    result
 0          C=CC(Cl)CCl (stereo unspecified)      outcome  inactive
 1                                   OCCOCCO      outcome  inactive
 2      Cc1ccc(N=CN(C)C=Nc2ccc(C)cc2C)c(C)c1      outcome  inactive
 3                   COc1ccc(O)c(C(C)(C)C)c1      outcome  inactive
 4                   CC(C)(C#N)N=NC(C)(C)C#N      outcome  inactive
 5      O=C(O)c1nn(Cc2ccc(Cl)cc2Cl)c2ccccc12      outcome  inactive
 6                           CCOS(=O)(=O)OCC      outcome  inactive
 7              CCNc1nc(Cl)nc(NC(C)(C)C#N)n1      outcome  inactive
 8                 [CH3][Sn]([Cl])([Cl])[Cl]      outcome  inactive
 9      c1ccc(C2CO2)cc1 (stereo unspecified)      outcome  inactive
10                            CCCCCCCCCCCCCl      outcome  inactive
11                                N#CCCCCC#N      outcome  inactive
12  CC(O)CN(CC(C)O)CC(C)O (stereo unspecified)      outcome  inactive
13                   Cc1ccc([N+](=O)[O-])cc1      outcome  inactive
14                            Clc1cccc(Cl)c1      outcome  inactive
15                 CC(C)Nc1ccc(Nc2ccccc2)cc1      outcome  inactive
